Molecular target: human β-hexosaminidase [human placenta] (HexA/B)
Construct: other: human β-hexosaminidase, human placenta; room temperature, thirty minutes
Experiment: Determination of IC50 values for inhibition of human β-hexosaminidase
Details: human β-hexosaminidase, human placenta; room temperature, thirty minutes
Listing: IC50 of selected compounds

Completed entries (count: 2):
compound="CCCNC(=O)C[C@H]1N[C@H](CO)[C@@H](O)[C@@H]1O [Compound A052]" experimental_value="> 300 µM"
compound="CCNC(=O)C[C@@H]1[C@@H](O)[C@H](O)[C@@H](CO)N1C(=O)CCc1ccccc1 [Compound A069]" experimental_value="> 300 µM"

Challenge: For the compound CCCCNC(=O)C[C@@H]1[C@H](O)[C@H](O)[C@@H](CO)N1CCCCCCCCCO [Compound A003] , what IC50 is on record?
Response given: > 300 µM

Challenge: Quick one: CCNC(=O)C[C@H]1N[C@H](CO)[C@@H](O)[C@@H]1O [Compound A050]
Response given: > 300 µM

Challenge: // query: CCCCCCCCCN1[C@H](CC(=O)NCCCC)[C@H](O)[C@H](O)[C@H]1CO [Compound A001]
Response given: > 300 µM

Challenge: Same for CCCCCCN1[C@@H](CO)[C@H](O)[C@H](O)[C@@H]1CC(=O)NC [Compound A024]
Response given: 44 µM

* * *

Below: a set of entries, each annotated with reported IC50.
Molecular target: human OGA (Homo sapiens, UniProt O60502)
Sequence (O60502 1-916): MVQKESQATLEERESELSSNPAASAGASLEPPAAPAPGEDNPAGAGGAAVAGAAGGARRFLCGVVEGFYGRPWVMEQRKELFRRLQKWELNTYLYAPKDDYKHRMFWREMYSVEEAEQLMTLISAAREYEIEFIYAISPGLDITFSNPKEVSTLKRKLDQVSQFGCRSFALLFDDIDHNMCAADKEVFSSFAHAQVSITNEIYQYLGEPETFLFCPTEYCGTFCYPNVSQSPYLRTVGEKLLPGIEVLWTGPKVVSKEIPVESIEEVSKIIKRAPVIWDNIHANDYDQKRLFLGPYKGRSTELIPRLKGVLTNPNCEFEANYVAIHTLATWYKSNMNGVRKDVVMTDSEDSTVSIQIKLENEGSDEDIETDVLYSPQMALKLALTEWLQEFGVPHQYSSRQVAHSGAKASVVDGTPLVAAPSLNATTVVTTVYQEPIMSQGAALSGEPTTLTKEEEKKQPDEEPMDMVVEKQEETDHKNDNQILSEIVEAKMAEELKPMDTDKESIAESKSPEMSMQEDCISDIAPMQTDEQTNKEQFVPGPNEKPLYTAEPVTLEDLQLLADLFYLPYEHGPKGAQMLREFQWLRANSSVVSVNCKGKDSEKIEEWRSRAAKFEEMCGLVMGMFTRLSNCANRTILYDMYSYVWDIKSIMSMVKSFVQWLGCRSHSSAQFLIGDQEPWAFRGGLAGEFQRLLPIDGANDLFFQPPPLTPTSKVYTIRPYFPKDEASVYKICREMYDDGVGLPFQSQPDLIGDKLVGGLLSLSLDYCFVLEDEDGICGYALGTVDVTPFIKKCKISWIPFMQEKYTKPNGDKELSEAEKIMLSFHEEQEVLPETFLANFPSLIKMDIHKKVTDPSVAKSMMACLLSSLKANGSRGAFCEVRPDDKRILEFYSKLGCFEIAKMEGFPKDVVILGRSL

compound="CNC(=O)C[C@@H]1[C@H](O)[C@H](O)[C@@H](CO)N1CCCCCNS(=O)(=O)c1ccc(Oc2ccccc2)cc1 [Compound A067]" measured_property=IC50 experimental_value="< 3 nM"
compound="CN(C)c1ccc(S(=O)(=O)NCCCCCCN2[C@H](CC(N)=O)[C@H](O)[C@H](O)[C@H]2CO)c2ccccc12 [Compound A015]" measured_property=IC50 experimental_value="< 3 nM"

Please find the next compound below.
Challenge: Item CCCNC(=O)C[C@@H]1[C@H](O)[C@H](O)[C@@H](CO)N1CCCCc1ccccc1 [Compound A022] with human OGA (Homo sapiens, UniProt O60502) - IC50?
Response given: 11 nM

* * *

Tested on: human β-hexosaminidase [human placenta] (HexA/B)
Assay: Determination of IC50 values for inhibition of human β-hexosaminidase
Type: biochemical
Settings: ratio
As shown below, each of these compounds has a reported Selectivity: IC50(human β-hexosaminidase)/IC50(Human OGA) value.

Field: example entries. Status: answers known.
smiles_repr=CN(C)c1ccc(S(=O)(=O)NCCCCCCN2[C@H](CC(N)=O)[C@H](O)[C@H](O)[C@H]2CO)c2ccccc12 experimental_value=>3666
smiles_repr=CCCCCCN1[C@H](CC(=O)NC)[C@H](O)[C@H](O)[C@H]1CO experimental_value=>6085
smiles_repr=CCCCCCN1[C@H](CC(=O)NC)[C@@H](O)[C@H](O)[C@@H]1CO experimental_value=0.02

Challenge: Which Selectivity: IC50(human β-hexosaminidase)/IC50(Human OGA) value belongs to CNC(=O)C[C@@H]1[C@H](O)[C@H](O)[C@@H](CO)N1CCCC(C)C ?
Response given: 5000

Challenge: Then what about the compound CCCCCCN1[C@H](CO)[C@@H](O)[C@H](O)[C@H]1CC(=O)NCCC ?
Response given: >2529

Challenge: Queued: CCNC(=O)C[C@@H]1[C@@H](O)[C@H](O)[C@@H](CO)N1CCCc1ccc(S(=O)(=O)NCC)cc1
Response given: 22133

Challenge: # iterate: CCCCCCN1[C@H](CC(=O)NCC(C)C)[C@H](O)[C@H](O)[C@H]1CO
Response given: >25.95

Challenge: Now the same for CCCCNC(=O)C[C@H]1N[C@H](CO)[C@@H](O)[C@H]1O
Response given: >4

Challenge: Request: CC(=O)NC[C@@H]1[C@H](O)[C@H](O)[C@@H](CO)N1CCCc1ccccc1
Response given: >230

Challenge: Entry O=C(C[C@@H]1[C@H](O)[C@H](O)[C@@H](CO)N1CCCc1ccccc1)NCCO please
Response given: >2.38

Challenge: Entry CCNC(=O)C[C@@H]1N[C@H](CO)[C@@H](O)[C@@H]1O please
Response given: >10.43

Challenge: # iterate: CCCCCCN1[C@H](CO)[C@@H](O)[C@@H](O)[C@@H]1CC(=O)NC
Response given: >4.41

* * *

Tested on: human β-hexosaminidase [human placenta] (HexA/B)
Test: Determination of IC50 values for inhibition of human β-hexosaminidase
Assay type: biochemical
Details: ratio
measured.property: Selectivity: IC50(human β-hexosaminidase)/IC50(Human OGA)

smiles_repr=CCCCCCN1[C@@H](CO)[C@H](O)[C@H](O)[C@@H]1CC(=O)NC experimental_value=0.31

A: CNC(=O)[C@H]1N[C@@H](CO)[C@@H](O)[C@@H]1O
B: CNC(=O)C[C@@H]1[C@@H](O)[C@H](O)[C@H](CO)N1CCCc1ccccc1
Challenge: // which entry has the larger Selectivity: IC50(human β-hexosaminidase)/IC50(Human OGA) value, A or B ? Lab note: record the label of whichever item you select.
Response given: A

* * *

Test system: human β-hexosaminidase [human placenta] (HexA/B)
Assay: Determination of IC50 values for inhibition of human β-hexosaminidase
Assay type: biochemical
Conditions: ratio
measured.property: Selectivity: IC50(human β-hexosaminidase)/IC50(Human OGA)

A: CNC(=O)C[C@H]1N[C@H](CO)[C@@H](O)[C@@H]1O
B: CCCCCCN1[C@H](CC(=O)NC)[C@H](O)[C@H](O)[C@@H]1CO
Challenge: Endpoint returns the identifier whose Selectivity: IC50(human β-hexosaminidase)/IC50(Human OGA) is numerically larger, either A or B . Returns: label corresponding to the selected item.
Response given: A
(A: 4.66, B: 0.54)

* * *

System: human β-hexosaminidase [human placenta] (HexA/B)
Experiment: Determination of IC50 values for inhibition of human β-hexosaminidase
Type: biochemical
Conditions: ratio
measured.property: Selectivity: IC50(human β-hexosaminidase)/IC50(Human OGA)

Worked cases, Selectivity: IC50(human β-hexosaminidase)/IC50(Human OGA) given:
smiles_repr=CCNC(=O)C[C@@H]1[C@@H](O)[C@H](O)[C@@H](CO)N1CCCc1ccc(Sc2ccccc2)cc1 assay_target="human β-hexosaminidase [human placenta] (HexA/B)" experimental_value=>42857
smiles_repr=CNC(=O)C[C@@H]1[C@H](O)[C@H](O)[C@@H](CO)N1CCCCc1ccccc1 assay_target="human β-hexosaminidase [human placenta] (HexA/B)" experimental_value=>13215
smiles_repr=CCCNC(=O)C[C@@H]1[C@H](O)[C@H](O)[C@@H](CO)N1CCCCCCCCCO assay_target="human β-hexosaminidase [human placenta] (HexA/B)" experimental_value=>2142

Continue with the next compound.
Challenge: Lab request: please report Selectivity: IC50(human β-hexosaminidase)/IC50(Human OGA) under test system human β-hexosaminidase [human placenta] (HexA/B) for CCCNC(=O)C[C@@H]1[C@H](O)[C@H](O)[C@@H](CO)N1CCCCc1ccccc1
Response given: >28571
